Recorded values, source patent US20260125397A1.

# Test System: MK2 (Homo sapiens)
# Protocol Details: MK2 degradation in human SW1353 cells (MSD, 24 h)
# Assay type: cell-based
# Parameters: endogenous in cells; host or cells: SW-1353 (ATCC HTB-94)
# Recorded Conditions: read-out: MK2 MSD SW 1353 24 h Dmax %
// Dmax lookup, one value per entry

# annotated cases, reported Dmax shown
Compound | Observed
Cn1c(=O)n(C2CCC(=O)NC2=O)c2ccc(N3CC(CN4CCN(c5ccc(-c6nccc(-c7cc8c([nH]7)C(C)(C)CNC8=O)n6)cc5)CC4)C3)cc21 (stereo not drawn) [I-22] | > 75%
Cn1c(=O)n(C2CCC(=O)NC2=O)c2ccc(N3CC(CN4CCC(N5CCN(c6nccc(-c7cc8c([nH]7)C7(CC7)CNC8=O)n6)CC5)CC4)C3)cc21 (stereo not drawn) [I-34] | > 50%
C[C@@H]1CNc2c(sc3ccc4nc(N5CCN(C6CC7(CCN(c8ccc(NC9CCC(=O)NC9=O)cc8F)CC7)C6)CC5)ccc4c23)C(=O)N1 (stereo partly drawn) [I-25] | > 75%

Now consider a different compound.
Entry Cn1c(=O)n(C2CCC(=O)NC2=O)c2ccc(N3CC(CN4CCN(c5ccc(-c6nccc(-c7cc8c([nH]7)C7(CC7)CNC8=O)n6)cc5C5CC5)CC4)C3)cc21 (stereo not drawn) [I-49] , Dmax reported as > 50%

* * *

// DC50 lookup, one value per entry
# Test System: MK2 (Homo sapiens)
# Protocol Details: MK2 degradation in human THP-1 monocytic cells (MSD, 24 h)
# Assay type: cell-based
# Set-up: endogenous in cells
# Recorded Conditions: THP-1 cells, read-out: MK2 MSD THP-1 degradation 24 h GMean External Abs DC50

Molecule | DC50
Cn1c(=O)n(C2CCC(=O)NC2=O)c2ccc(N3CC(CN4CCN(c5ccc(-c6nccc(-c7cc8c([nH]7)C7(CC7)CNC8=O)n6)cc5C#N)CC4)C3)cc21 (stereo not shown) | < 1 nM
COc1ccc2c(c1CCN1CCN(c3ccc(-c4nccc(-c5cc6c([nH]5)C5(CC5)CNC6=O)n4)cc3)CC1)n(C)c(=O)n2C1CCC(=O)NC1=O (stereo not shown) | < 1 nM
Cn1c(=O)n(C2CCC(=O)NC2=O)c2ccc(N3CC(CN4CCN(c5ccc(-c6nccc(-c7cc8c([nH]7)C7(CC7)CNC8=O)n6)cc5C5CC5)CC4)C3)cc21 (stereo not shown) | < 1 nM
C[C@@H]1CNc2c(sc3ccc4nc(N5CCN(CCC6CCC7(CC6)CCN(C(=O)c6ccc(Cl)c(N8CCC(=O)NC8=O)c6)CC7)CC5)ccc4c23)C(=O)N1 | < 1 nM
Cn1c(=O)n(C2CCC(=O)NC2=O)c2ccc(N3CC(CN4CCN(c5ccc(-c6cc(-c7cc8c(o7)C7(CC7)CNC8=O)ccn6)cc5)CC4)C3)cc21 (stereo not shown) | < 1 nM
O=C1CCN(c2cncc3c(CCN4CCN(c5ccc(-c6nccc(-c7cc8c([nH]7)C7(CCC7)CNC8=O)n6)c(F)c5)CC4)cccc23)C(=O)N1 | < 1 nM
Cn1c(=O)n(C2CCC(=O)NC2=O)c2ccc(N3CC(CN4CCN(c5ccc(-c6nccc(-c7cc8c([nH]7)C7(CC7)CNC8=O)n6)cc5)CC4)C3)cc21 (stereo not shown) | > 100 nM
Cn1c(=O)n(C2CCC(=O)NC2=O)c2ccc(N3CCN(CC#Cc4ccc(-c5nccc(-c6cc7c([nH]6)C6(CC6)CNC7=O)n5)cc4)CC3)cc21 (stereo not shown) | < 1 nM

Entry C[C@@H]1CNc2c(sc3ccc4nc(N5CCN(CC6CCC7(CC6)CN(c6ccc(NC8CCC(=O)NC8=O)cc6F)C7)CC5)ccc4c23)C(=O)N1 (stereo partly shown) , DC50 reported as 1 to 10 nM

Entry Cn1c(=O)n(C2CCC(=O)NC2=O)c2ccc(N3CC(CN4CCN(c5ccc(-c6nccc(-c7cc8c([nH]7)C7(CC7)CNC8=O)n6)cc5C(F)(F)F)CC4)C3)cc21 (stereo not shown) , DC50 reported as < 1 nM

Entry C[C@@H]1CNc2c(sc3ccc4nc(N5CCN(C[C@H]6C[C@@]7(CCN(c8ccc9c(c8)n(C)c(=O)n9C8CCC(=O)NC8=O)C7)C6)CC5)ccc4c23)C(=O)N1 (stereo partly shown) , DC50 reported as < 1 nM

Entry Cn1c(=O)n(C2CCC(=O)NC2=O)c2ccc(N3CC(CN4CCN(c5ccc(-c6cc(-c7cc8c([nH]7)C7(CC7)CNC8=O)ncn6)cc5)CC4)C3)cc21 (stereo not shown) , DC50 reported as < 1 nM

* * *

# Test System: MK2 (Homo sapiens, UniProt P49137)
# Sequence (P49137 whole entry): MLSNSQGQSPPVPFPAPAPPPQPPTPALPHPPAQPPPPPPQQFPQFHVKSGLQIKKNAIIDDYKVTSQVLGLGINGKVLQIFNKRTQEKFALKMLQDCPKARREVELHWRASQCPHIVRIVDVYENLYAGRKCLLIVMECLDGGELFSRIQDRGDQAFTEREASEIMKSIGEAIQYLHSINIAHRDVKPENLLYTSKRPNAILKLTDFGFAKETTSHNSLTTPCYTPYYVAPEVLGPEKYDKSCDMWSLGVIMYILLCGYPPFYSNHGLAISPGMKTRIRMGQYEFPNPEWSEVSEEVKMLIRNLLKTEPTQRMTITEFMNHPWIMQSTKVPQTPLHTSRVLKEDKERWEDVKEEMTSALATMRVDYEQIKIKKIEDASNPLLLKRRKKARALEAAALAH
# Protocol Details: MK2 degradation in human SW1353 cells (MSD, 24 h)
# Format: cell-based
# Set-up: endogenous in cells; host or cells: SW-1353 (ATCC HTB-94)
# Recorded Conditions: read-out: MK2 MSD SW 1353 24 h Dmax %
Readout: Dmax

Compound | Dmax
C[C@@H]1CNc2c(sc3ccc4nc(N5CCN(CCC6CCC7(CC6)CCN(C(=O)c6ccc(Cl)c(N8CCC(=O)NC8=O)c6)CC7)CC5)ccc4c23)C(=O)N1 | > 75%
Cn1c(=O)n(C2CCC(=O)NC2=O)c2ccc(N3CC(CN4CCN(c5ccc(-c6cc(-c7cc8c([nH]7)C7(CC7)CNC8=O)ncn6)cc5)CC4)C3)cc21 (centres unmarked) | 50 to 75%
Cn1c(=O)n(C2CCC(=O)NC2=O)c2ccc(N3CC(CN4CCN(c5ccc(-c6nccc(-c7cc8c([nH]7)C7(CC7)CNC8=O)n6)cc5C#N)CC4)C3)cc21 (centres unmarked) | > 75%

Entry C[C@@H]1CNc2c(sc3ccc4nc(N5CCC(N(CC(F)(F)F)C6CC7(CCN(c8ccc9c(c8)n(C)c(=O)n9C8CCC(=O)NC8=O)CC7)C6)CC5)ccc4c23)C(=O)N1 (some centres unmarked) , Dmax reported as > 75%

Entry C[C@@H]1CNc2c(sc3ccc4nc(N5CCC(CN6CCC(N7CC(c8ccc9c(c8)n(C)c(=O)n9C8CCC(=O)NC8=O)C7)CC6)CC5)ccc4c23)C(=O)N1 (some centres unmarked) , Dmax reported as > 75%

Entry "C[C@@H]1CNc2c(sc3ccc4nc(N5CCN(CC6CCC7(CC6)CN(c6ccc8c(N9CCC(=O)NC9=O)cncc8c6)C7)CC5)ccc4c23)C(=O)N1" , Dmax reported as > 75%

Entry Cn1c(=O)n(C2CCC(=O)NC2=O)c2ccc(N3CC(CN4CCN(c5ccc(-c6cc(-c7cc8c(o7)C7(CC7)CNC8=O)ncn6)cc5)CC4)C3)cc21 (centres unmarked) , Dmax reported as > 50%

Entry C[C@@H]1CNc2c(sc3ccc4nc(N5CCN(C[C@H]6C[C@]7(CCN(c8ccc9c(c8)n(C)c(=O)n9C8CCC(=O)NC8=O)C7)C6)CC5)ccc4c23)C(=O)N1 (some centres unmarked) , Dmax reported as > 50%

* * *

// Dmax lookup, one value per entry
# Test System: MK2 (Homo sapiens)
# Protocol Details: MK2 degradation in human SW1353 cells (MSD, 24 h)
# Assay type: cell-based
# Design: endogenous in cells; host or cells: SW-1353 (ATCC HTB-94)
# Recorded Conditions: read-out: MK2 MSD SW 1353 24 h Dmax %

# annotated cases, reported Dmax shown
Compound | Dmax
Cn1c(=O)n(C2CCC(=O)NC2=O)c2ccc(N3CC(CN4CCC(n5cc(-c6nccc(-c7cc8c([nH]7)C7(CC7)CNC8=O)n6)cn5)CC4)C3)cc21 (centres unmarked) [I-44] | > 50%
Cn1c(=O)n(C2CCC(=O)NC2=O)c2ccc(C#CCN3CCN(c4ccc(-c5nccc(-c6cc7c([nH]6)C6(CC6)CNC7=O)n5)cc4)CC3)cc21 (centres unmarked) [I-41] | 50 to 75%
COc1ccc2c(c1CCN1CCN(c3ccc(-c4nccc(-c5cc6c([nH]5)C5(CC5)CNC6=O)n4)cc3)CC1)n(C)c(=O)n2C1CCC(=O)NC1=O (centres unmarked) [I-42] | > 75%
Cn1c(=O)n(C2CCC(=O)NC2=O)c2cccc(N3CCC(N4CCN(c5ccc(-c6nccc(-c7cc8c([nH]7)C7(CCCC7)CNC8=O)n6)cc5)CC4)C3)c21 (centres unmarked) [I-33] | 50 to 75%
COc1cc(-c2nccc(-c3cc4c([nH]3)C3(CC3)CNC4=O)n2)ccc1N1CCN(CC2CN(c3ccc4c(c3)n(C)c(=O)n4C3CCC(=O)NC3=O)C2)CC1 (centres unmarked) [I-54] | > 50%

Form: item Cn1c(=O)n(C2CCC(=O)NC2=O)c2cccc(-n3ccc(N4CCN(c5ccc(-c6nccc(-c7cc8c([nH]7)C7(CCCC7)CNC8=O)n6)cc5)CC4)c3)c21 (centres unmarked) [I-32] ; test system MK2 (Homo sapiens); Dmax: > 50%

Form: item C[C@@H]1CNc2c(sc3ccc4nc(N5CCN(CC6CCC7(CC6)CN(c6ccc(NC8CCC(=O)NC8=O)cc6F)C7)CC5)ccc4c23)C(=O)N1 (some centres unmarked) [I-20] ; test system MK2 (Homo sapiens); Dmax: > 75%

Form: item Cn1c(=O)n(C2CCC(=O)NC2=O)c2ccc(N3CCN(CC#Cc4ccc(-c5nccc(-c6cc7c([nH]6)C6(CC6)CNC7=O)n5)cc4)CC3)cc21 (centres unmarked) [I-51] ; test system MK2 (Homo sapiens); Dmax: > 50%
